target: PCSK9; experiment: Biacore SPR
Consider the following binders; for each one, report its pKd.
pKd here is simply -log10 of the concentration when that concentration is written in mol/L.

Value lookup for pKd; key = 1B20 variant G8 (antibody, part only; not given: light chain, probably the common parent VL, V domains shown, part only) VH: QVQLVQSGAEVKKPGESLKISCKGSGYSFTDYYISWVRQMPGKGLEWMGLIYPGDSYTHYNPNFQGQVTISADKSISTAYLQWSSLKASDTAMYYCARDHWSKPYFDVWGQGTLVTVSS 8.82

Value lookup for pKd; key = 1B20 variant B8 (antibody, part only; not given: light chain, V domains shown, part only) VH: QVQLVQSGAEVKKPGESLKISCKGSGYSFTNYYISWVRQMPGKGLEWMGMIYPGDSYTHYSPNFQGQVTISADKSISTAYLQWSSLKASDTAMYYCARDYWSKPYFDVWGQGTLVTVSS 8.35

Value lookup for pKd; key = 1B20 variant F4 (antibody, part only; not given: light chain, probably the common parent VL, V domains shown, part only) VH: QVQLVQSGAEVKKPGESLKISCKGSGYSFTDYYISWVRQMPGKGLEWMGLIYPGDSYTRYSPSFQGQVTISADKSISTAYLQWSSLKASDTAMYYCARDYYSKPLFDVWGQGTLVTVSS 8.50

Value lookup for pKd; key = 1B20 variant E1 (antibody, part only; not given: light chain, probably the common parent VL, V domains shown, part only) VH: QVQLVQSGAEVKKPGESLKISCKGSGYSFTNYYISWVRQMPGKGLEWMGMIYPGDSYTSYNPNFQGQVTISADKSISTAYLQWSSLKASDTAMYYCARDHWSKPFFDIWGQGTLVTVSS 8.87
